Recorded values, source patent US10597370B2.

- measuredTarget: Endothelial lipase (EL) (Homo sapiens, UniProt Q9Y5X9)
- Construct: transformed by RAGE technology (Athersys) to overexpress endogenous EL; endogenous in cells; the conditioned medium served as the enzyme source
- Sequence (Q9Y5X9 21-500): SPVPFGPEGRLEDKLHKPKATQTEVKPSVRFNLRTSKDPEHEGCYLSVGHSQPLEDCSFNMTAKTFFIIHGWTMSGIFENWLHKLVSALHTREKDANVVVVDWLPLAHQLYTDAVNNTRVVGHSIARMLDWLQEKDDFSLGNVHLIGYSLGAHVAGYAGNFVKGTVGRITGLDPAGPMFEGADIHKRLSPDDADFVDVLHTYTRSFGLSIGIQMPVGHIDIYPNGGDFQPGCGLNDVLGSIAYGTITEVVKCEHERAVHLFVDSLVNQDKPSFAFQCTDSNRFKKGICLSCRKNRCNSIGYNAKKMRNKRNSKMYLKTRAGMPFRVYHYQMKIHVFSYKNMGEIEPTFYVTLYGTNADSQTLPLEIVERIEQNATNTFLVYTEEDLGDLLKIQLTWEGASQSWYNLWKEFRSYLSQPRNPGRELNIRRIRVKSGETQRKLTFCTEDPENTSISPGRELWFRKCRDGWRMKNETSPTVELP
- protocolSummary: Endothelial lipase (EL) enzymatic assay with fluorescent substrate A10070 in DMPG vesicles
- condition: conditioned media from HT-1080 cells overexpressing endogenous EL; 20 min preincubation at 37° C.
pIC50: −log10 of the molar value.
Entries and their pIC50
recordedMetric: pIC50

CN1CCN(C(=O)c2ccc(-c3ccc4nc(C(C#N)C(=O)NCC(=O)NC5CCC5)sc4c3)cc2)CC1 (centres unmarked) [Example 19]    5.50
N#CC(C(=O)NCC(=O)NC1CC1)c1nc2ccc(-c3ccccc3)cc2s1 (centres unmarked) [Example 1]    7.89
CN1CCN(C(=O)c2ccc(-c3ccc4nc(C(C#N)C(=O)NCC(=O)NC5CC5)sc4c3)cc2)CC1 (centres unmarked) [Example 20]    6.89
N#CC(C(=O)NCC(=O)NC1CC1)c1nc2ncc(-c3ccccc3)cc2s1 (centres unmarked) [Example 21]    7.89
